Measured pIC50 accompanies every entry in the list below.
# TGT: KRAS G13D (Homo sapiens (Human), UniProt P01116+P62937, G13D)
# Sequence (P01116-2 other isoform, or with tags, fused parts or gaps G13D): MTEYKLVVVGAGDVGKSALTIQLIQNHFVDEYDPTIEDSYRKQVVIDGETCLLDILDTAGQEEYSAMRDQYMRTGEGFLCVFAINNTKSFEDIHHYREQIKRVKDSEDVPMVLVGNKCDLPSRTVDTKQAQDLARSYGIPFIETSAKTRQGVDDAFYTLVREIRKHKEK
# Sequence (P62937 whole entry): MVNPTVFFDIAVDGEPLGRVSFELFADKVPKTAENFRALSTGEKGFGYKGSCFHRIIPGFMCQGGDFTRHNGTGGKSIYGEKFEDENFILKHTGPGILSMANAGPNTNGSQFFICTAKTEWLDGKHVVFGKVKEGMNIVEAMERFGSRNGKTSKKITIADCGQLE
# TEST SUMMARY: Ras-Raf (BRAF RBD) disruption / FRET / MOA assay, KRAS G13D
# Type: biochemical
# PROTOCOL CONDITIONS: read-out: IC50* KRAS G13D FRET data
pIC50: −log10 of the molar value.

>  <COMPOUND>
C=CC(=O)N1CC[C@H](C(=O)N(C)[C@H](C(=O)N[C@H]2Cc3cc(O)cc(c3)-c3ccc4c(c3)c(c(-c3cccnc3[C@@H](OC)C3CC3)n4CC)CC(C)(C)COC(=O)[C@@H]3CCCN(N3)C2=O)C(C)C)C1 (atropisomer, axis not shown) [Example A207]

>  <pIC50>
6.00 to 7.00

$$$$
>  <COMPOUND>
CC#CC(=O)N1CC(N(C)C(=O)N(C)[C@H](C(=O)N[C@H]2Cc3nc(cs3)-c3ccc4c(c3)c(c(-c3cccnc3[C@H](C)OC)n4CC)CC(C)(C)COC(=O)[C@@H]3CCCN(N3)C2=O)C(C)C)C1 (atropisomer, axis not shown)

>  <pIC50>
5.00 to 6.00

$$$$
>  <COMPOUND>
C/C=C(\C)S(=O)(=O)N1CC[C@H](C(=O)N(C)[C@H](C(=O)N[C@H]2Cc3cccc(c3)-c3ccc4c(c3)c(c(-c3cccnc3[C@H](C)OC)n4CC)CC(C)(C)COC(=O)[C@@H]3CCCN(N3)C2=O)C(C)C)C1 (atropisomer, axis not shown)

>  <pIC50>
< 5.00

$$$$
>  <COMPOUND>
C=CC(=O)N1CC[C@](F)(C(=O)N(C)[C@H](C(=O)N[C@H]2Cc3cccc(c3)-c3ccc4c(c3)c(c(-c3cccnc3[C@H](C)OC)n4CC)CC(C)(C)COC(=O)[C@@H]3CCCN(N3)C2=O)C(C)C)C1 (atropisomer, axis not shown)

>  <pIC50>
5.00 to 6.00

$$$$
>  <COMPOUND>
C=CC(=O)Nc1cnc(C(=O)N(C)[C@H](C(=O)N[C@H]2Cc3cccc(c3)-c3ccc4c(c3)c(c(-c3cccnc3[C@H](C)OC)n4CC)CC(C)(C)COC(=O)[C@@H]3CCCN(N3)C2=O)C(C)C)n1C (atropisomer, axis not shown) [Example A525]

>  <pIC50>
5.00 to 6.00

$$$$

INPUT: Using the record for C=CC(=O)N1CC[C@]2(C1)OCN([C@H](C(=O)N[C@H]1Cc3cccc(n3)-c3ccc4c(c3)c(c(-c3cccnc3[C@H](C)OC)n4CC)CC(C)(C)COC(=O)[C@@H]3CCCN(N3)C1=O)C(C)C)C2=O (atropisomer, axis not shown) , report its pIC50.
OUTPUT: 5.00 to 6.00

INPUT: Repeat with CCn1c(-c2cccnc2[C@H](C)OC)c2c3cc(ccc31)-c1nsc(n1)C[C@H](NC(=O)[C@H](C(C)C)N(C)C(=O)[C@H]1CCN(C(=O)C#CCN3CCOCC3)C1)C(=O)N1CCC[C@H](N1)C(=O)OCC(C)(C)C2 (atropisomer, axis not shown)
OUTPUT: < 5.00

INPUT: Repeat with CCn1c(-c2cccnc2[C@H](C)OC)c2c3cc(ccc31)-c1csc(n1)C[C@H](NC(=O)[C@H](C(C)C)N(C)C(=O)N1C[C@H]3CN(C(=O)C#CC(C)(C)N(C)C)CC[C@H]31)C(=O)N1CCC[C@H](N1)C(=O)OCC(C)(C)C2 (atropisomer, axis not shown)
OUTPUT: 6.00 to 7.00

INPUT: Repeat with CCn1c(-c2cccnc2[C@H](C)OC)c2c3cc(ccc31)-c1csc(n1)C[C@H](NC(=O)[C@H](C(C)C)N(C)C(=O)N1CCC3(CC1)CN(C(=O)/C=C/CF)C3)C(=O)N1CCC[C@H](N1)C(=O)OCC(C)(C)C2 (atropisomer, axis not shown)
OUTPUT: 6.00 to 7.00

INPUT: Repeat with C=CC(=O)N1CC[C@H](C(=O)N(C)[C@H](C(=O)N[C@H]2Cc3cccc(c3)-c3ccc4c(c3)c(c(-c3cc(C5CCN(C)CC5)cnc3[C@H](C)OC)n4CC)CC(C)(C)COC(=O)[C@@H]3CCCN(N3)C2=O)C(C)C)C1 (atropisomer, axis not shown) [Example A516]
OUTPUT: < 5.00

INPUT: Repeat with C=CC(=O)N1CC(N(C)C(=O)N(C)[C@H](C(=O)N[C@H]2Cc3nc(cs3)-c3ccc4c(c3)c(c(-c3cccnc3[C@H](C)OC)n4CC)CC(C)(C)COC(=O)[C@@H]3CCCN(N3)C2=O)C(C)C)C1 (atropisomer, axis not shown)
OUTPUT: 5.00 to 6.00

INPUT: Repeat with C=CC(=O)N1CC[C@@]2(CCN2C(=O)N(C)[C@H](C(=O)N[C@H]2Cc3nc(cs3)-c3ccc4c(c3)c(c(-c3cccnc3[C@H](C)OC)n4CC)CC(C)(C)COC(=O)[C@@H]3CCCN(N3)C2=O)C(C)C)C1 (atropisomer, axis not shown)
OUTPUT: 6.00 to 7.00

INPUT: Repeat with CCn1c(-c2cccnc2[C@H](C)OC)c2c3cc(ccc31)-c1nc(cs1)C[C@H](NC(=O)[C@H](C1CCCC1)N(C)C(=O)[C@H]1CCN(C(=O)C#CC(C)(C)N3CCC3)C1)C(=O)N1CCC[C@H](N1)C(=O)OCC(C)(C)C2 (atropisomer, axis not shown)
OUTPUT: 5.00 to 6.00

INPUT: Repeat with C=CC(=O)N1CC[C@H](C(=O)N(C)[C@H](C(=O)N[C@H]2CC3=NN=C(O3)c3ccc4c(c3)c(c(-c3cccnc3[C@H](C)OC)n4CC)CC(C)(C)COC(=O)[C@@H]3CCCN(N3)C2=O)C(C)C)C1 (atropisomer, axis not shown)
OUTPUT: < 5.00

Value source: patent US11566007B2
